Molecular target: Catechol O-methyltransferase (Homo sapiens)
Experiment: Confirmatory Screen for Target Class Profiling of Small Molecule Inhibitors of Methyltransferases (AID 1745852)
Conditions: MTase-Glo luminescence, SAH detection, recombinant enzyme; measured here: COMT max response; stronger effect = lower value
Field: activity. Provide a value for each of the compounds that follow.
Report as a plain number; the unit % is understood.

Request the reported activity associated with "COc1ccc(/C=C/C(=O)O[C@@H]2[C@@H](OC(C)=O)[C@@H](OC(C)=O)[C@H](O[C@H]3[C@@H]4C=CO[C@@H](O[C@@H]5O[C@H](CO)[C@@H](O)[C@H](O)[C@H]5O)[C@@H]4[C@@]4(CO)O[C@@H]34)O[C@H]2C)cc1O"
-68.6

Request the reported activity associated with COc1cc2c(Nc3ccc(Cl)c(Cl)c3F)ncnc2cc1OCC1C[C@@H]2CN(C)C[C@@H]2C1 (some centres not stated)
-81.3

Request the reported activity associated with CC1(C)CC[C@]2(C(=O)O[C@@H]3O[C@H](CO)[C@@H](O)[C@H](O)[C@H]3O)CC[C@]3(C)C(=CCC4[C@@]5(C)C[C@@H](O)[C@H](O)[C@@](C)(CO)C5CC[C@]43C)C2C1 (some centres not stated)
-71.4

Request the reported activity associated with COC(=O)C1=COC(OC2OC(CO)C(O)C(O)C2O)C2C1CC(OC(=O)C(O)CC(=O)O)C2C (configuration not stated)
-63.4

Request the reported activity associated with CC1(C)CCC2(C(=O)OC3OC(COC4OC(CO)C(O)C(O)C4O)C(O)C(O)C3O)CCC3(C)C(=CCC4C5(C)CCC(O)C(C)(C(=O)O)C5CCC43C)C2C1O (configuration not stated)
-59.6

Request the reported activity associated with "C=C1[C@H]2[C@H](O[C@@H]3O[C@H](COC(=O)/C=C/c4cc(OC)c(O)c(OC)c4)[C@@H](O)[C@H](O)[C@H]3O)OC=C(C(=O)O)[C@H]2C[C@@H]1O"
-50.9

Request the reported activity associated with CC(CCC1C(C(=O)O)=CC(=O)CC1(C)C)O[C@@H]1O[C@H](CO)[C@@H](O)[C@H](O)[C@H]1O (some centres not stated)
-82.7

Request the reported activity associated with "Cc1[nH]cnc1C1CCN(c2nc3cccc4c3n2CCC4=O)CC1"
1.4

Request the reported activity associated with CC1(C)CC[C@]2(C(=O)O[C@@H]3O[C@H](CO)[C@@H](O)[C@H](O)[C@H]3O)CC[C@]3(C)C(=CCC4[C@@]5(C)C[C@@H](O)[C@H](O)C(CO)(CO)C5CC[C@]43C)C2[C@@H]1O (some centres not stated)
-77.5

Request the reported activity associated with C=C1C(O[C@@H]2O[C@H](CO)[C@@H](O)[C@H](O)[C@@H]2O)CC2C(C)(C)C(O)CCC2(C)C1CC/C(C)=C\CO (some centres not stated)
-63.2

Request the reported activity associated with CC1CC(=O)C2=C(O1)OC1(C)CCC3C(C)(C)C=CC(=O)C3(C)C1C2 (configuration not stated)
-45.9

Request the reported activity associated with COc1cc(C2Oc3c(OC)cc(CCCO[C@@H]4O[C@H](CO)[C@@H](O)[C@H](O)[C@H]4O)cc3C2CO)ccc1O (some centres not stated)
-72

Request the reported activity associated with CC1=CC(=O)C2C(C)(C)CCCC2(C)C12CCC1(COC(=O)C1)O2 (configuration not stated)
-85.5

Request the reported activity associated with CC1CC(O)C2(C)C(C(=O)O)=CCCC2C1(C)CCc1ccoc1 (configuration not stated)
-89.3

Request the reported activity associated with "CC(=O)NCCCCn1c2c(c3ccccc31)C(=O)NCC2"
-9.83

Request the reported activity associated with "CCc1nc(C(N)=O)c(Nc2ccc(N3CCC(N4CCN(C)CC4)CC3)c(OC)c2)nc1NC1CCOCC1"
-34.5

Request the reported activity associated with CC1=CC(=O)CC(C)(C)C1(O)CCC(C)O (configuration not stated)
-75.7

Request the reported activity associated with "COC(=O)C1=CO[C@@H](O[C@@H]2O[C@H](COC(=O)/C=C/c3cc(OC)c(O)c(OC)c3)[C@@H](O)[C@H](O)[C@H]2O)[C@@H]2C(CO)=CC[C@H]12"
-58.2

Request the reported activity associated with "COCCN(C)Cc1ccc2nc3sc(C(=O)N(C)C4CCCCC4)cn3c2c1"
-4.7

Request the reported activity associated with "COc1cc(N2CCC(O)CC2)ccc1Nc1cc(Nc2ccccc2S(=O)(=O)C(C)C)c2cc[nH]c2n1"
2.25

Request the reported activity associated with "O=C(O)CCc1cccc(O[C@@H]2O[C@H](CO)[C@@H](O)[C@H](O)[C@H]2O)c1O"
-71.6

Request the reported activity associated with CC1=CC(=O)CC(C)(C)C1CCC(C)OC1OC(COC(=O)c2cc(O)c(O)c(O)c2)C(O)C(O)C1O (configuration not stated)
-58.9
